System: IGROV-1
protocol: NCI tumour cell line growth inhibition, 48 h
Activity calls are given as the source filed them. Rule as the data show it: active = GI50 up to about 1.1 µM and inactive = higher.
Outcome field: choose from TRUE = active, FALSE = inactive

Would you please look over these solved cases?
- compound: "CCOC(=O)c1[nH]c(Br)c(-c2ccc(Br)cc2)c1Br"
  qualitative_label: "TRUE"
- compound: "CCCCCCc1cc2cc(-c3csc(CC#N)n3)c(=O)oc2cc1O"
  qualitative_label: "FALSE"
- compound: "O=C(O)C1C2CC3CC2CC31 (stereo unspecified)"
  qualitative_label: "FALSE"
- compound: "OCc1cc2c(cn1)[nH]c1ccc(NCc3ccccc3)cc12"
  qualitative_label: "FALSE"
- compound: "CC(C)(C)OC(=O)N/C=C1\\C(=O)Oc2ccccc2C1=O"
  qualitative_label: "FALSE"

Query string: Test call for this compound, please: CC(C)SC1SCC2C(=O)N(C)C3(CC3C)C(=O)OCC(NC(=O)c3nc4ccccc4cc3O)C(=O)NC(C)C(=O)N(C)C1C(=O)N(C)C1(CC1C)C(=O)OCC(NC(=O)c1nc3ccccc3cc1O)C(=O)NC(C)C(=O)N2C (stereo unspecified)
Result string: TRUE

* * *

System: OVCAR-3
protocol: NCI tumour cell line growth inhibition, 48 h
Calls of active or inactive are those of the source. Rule as the data show it: active = GI50 up to about 1.1 µM and inactive = higher.
Outcome field: choose from Yes = active, No = inactive

Would you please look over these solved cases?
- compound: "C=C1CC/C=C(\\C)C(=O)C[C@@H]2[C@@H]1CC2(C)C [BUDDLEDIN C]"
  tgt: "OVCAR-3"
  qualitative_label: "No"
- compound: "Oc1cc(Br)cc2cccnc12"
  tgt: "OVCAR-3"
  qualitative_label: "Yes"
- compound: "COc1ccc(-c2cs/c(=N\\c3ccccc3)n2CCCN(C)C)cc1"
  tgt: "OVCAR-3"
  qualitative_label: "No"
- compound: "C[C@H](NS(=O)(=O)c1ccc(NC(=O)c2ccccc2)cc1)C(=O)O"
  tgt: "OVCAR-3"
  qualitative_label: "No"
- compound: "Oc1ccccc1C1=NOC(c2ccc(C(F)(F)F)cc2)C1 (centres undefined)"
  tgt: "OVCAR-3"
  qualitative_label: "No"

Query string: Test call for this compound, please: Cc1ccc2c(O)cc(-c3cc4ccccc4s3)nc2n1
Result string: No

* * *

Tested on: SF-295
protocol: NCI tumour cell line growth inhibition, 48 h
Activity calls are given as the source filed them. Rule as the data show it: active = GI50 up to about 1.1 µM and inactive = higher.
recorded_endpoint: GI50

Query string: If you can, please state the reported GI50 value of Cn1c2ccccc2c(=O)c2c(O)cc3c(c21)C=CC1(CCCCC1)O3 .
Result string: > 10 µM (inactive)

Query string: Also, OC(C1CCCC1=N/N=C1/CCCC1C(O)(C(F)(F)Cl)C(F)(F)Cl)(C(F)(F)Cl)C(F)(F)Cl (stereo unspecified) please.
Result string: > 10 µM (inactive)

Query string: Also, Nc1nc(Cl)cc(NCCCCCCCCNc2cc(Cl)nc(N)n2)n1 please.
Result string: 1.48 µM (inactive)

* * *

Test system: SF-295
protocol: NCI tumour cell line growth inhibition, 48 h
Active and inactive are the calls of the source. Rule as the data show it: active = GI50 up to about 1.1 µM and inactive = higher.
Below is a list of entries, each paired with its recorded GI50 value.

These solved cases illustrate the format of a correct answer.
- compound: "O=C1/C(=C/c2ccccc2[N+](=O)[O-])N=C(c2ccccc2)N1C1Nc2cc3c(cc2S1)NC(N1C(=O)/C(=C/c2ccccc2[N+](=O)[O-])N=C1c1ccccc1)S3 (configuration not stated)"
  result: "63.8 µM (inactive)"
- compound: "CC(C)(C)OC(=O)N/C=C1\\C(=O)Oc2ccccc2C1=O"
  result: "38.5 µM (inactive)"

Query string: If you can, please state the reported GI50 value of OCc1cc2c(cn1)[nH]c1ccc(NCc3ccccc3)cc12 .
Result string: 22.3 µM (inactive)

* * *

Tested on: K562
protocol: NCI tumour cell line growth inhibition, 48 h
Active and inactive are the calls of the source. Rule as the data show it: active = GI50 up to about 1.1 µM and inactive = higher.
recorded_endpoint: GI50

These solved cases illustrate the format of a correct answer.
- compound: "Cc1cc(CN2CCCCC2)c(O)c(CN2CCCCC2)c1"
  result: "> 100 µM (inactive)"
- compound: "O=C1/C(=C/c2cccs2)N=C(c2ccccc2)N1c1nc2ccccc2s1"
  result: "47.5 µM (inactive)"
- compound: "O=C(O)C(C1NCCS1)N1Cc2ccccc2C1 (stereo not given)"
  result: "> 100 µM (inactive)"
- compound: "COc1cc2cc3c4cc(OC)c(OC)cc4cc[n+]3c(C)c2cc1OC.O=C([O-])CS(=O)(=O)O"
  result: "61.1 µM (inactive)"
- compound: "N#Cc1nc(C(O)c2ccccc2)oc1N (stereo not given)"
  result: "> 100 µM (inactive)"
- compound: "c1ccc2sc(C3(N4CCCCC4)CCCC3)cc2c1"
  result: "6.61 µM (inactive)"
- compound: "N=C(N)NC(=N)Nc1c(F)c(F)c(F)c(F)c1F"
  result: "41.5 µM (inactive)"
- compound: "C=C1C(=O)O[C@H]2C/C(C)=C/CC[C@]3(C)CCC[C@](C)(CC[C@@H]12)O3"
  result: "8.49 µM (inactive)"
- compound: "O=[N+]([O-])c1ccc(/C=N/C23CC4CC(CC(C4)C2)C3)cc1"
  result: "54.7 µM (inactive)"

Query string: If you can, please state the reported GI50 value of O=c1c2ccccc2nc(-c2cccc(Cl)c2)n1NCC1(O)OCC(O)C(O)C1O (stereo not given) .
Result string: 45.7 µM (inactive)

* * *

System: MOLT-4
protocol: NCI tumour cell line growth inhibition, 48 h
Calls of active or inactive are those of the source. Cut-off read from the data, not from the text of the source: active = GI50 up to about 1.1 µM and inactive = higher.
Outcome field: choose from active, inactive

Would you please look over these solved cases?
- molecule: "NC1=C(O)c2cccc3cccc(c23)C1=O"
  tgt: "MOLT-4"
  qualitative_label: "inactive"
- molecule: "Cc1cccc(Nc2cn(CCOc3ccccc3)c(=O)n(CCOc3ccccc3)c2=O)c1"
  tgt: "MOLT-4"
  qualitative_label: "inactive"
- molecule: "CN1C(=O)N(c2nc3ccccc3[nH]2)C(C)(C)C1=O"
  tgt: "MOLT-4"
  qualitative_label: "inactive"
- molecule: "O=C(NCCCN1CCN(CCCNC(=O)c2cc(-c3ccccc3)nc3ccccc23)CC1)c1cc(-c2ccccc2)nc2ccccc12"
  tgt: "MOLT-4"
  qualitative_label: "inactive"
- molecule: "CCN1C(=O)C(C)S/C1=N\\NC(=O)CSc1nc2ccccc2c(=O)n1CC (configuration not stated)"
  tgt: "MOLT-4"
  qualitative_label: "inactive"
- molecule: "COc1ccc(/C=N\\N2CC(=O)N3C4C=CC(CC4)N3C2=O)cc1 (configuration not stated)"
  tgt: "MOLT-4"
  qualitative_label: "inactive"
- molecule: "O=C(O)CNC(=O)C1NC(C(F)(F)F)(C(F)(F)F)OC1(C(F)(F)F)C(F)(F)F (configuration not stated)"
  tgt: "MOLT-4"
  qualitative_label: "inactive"
- molecule: "CSc1sc(C)cc1-c1nsc(=O)o1"
  tgt: "MOLT-4"
  qualitative_label: "inactive"
- molecule: "Brc1cc(CCOC2CCCCO2)c(-c2sccc2CCOC2CCCCO2)s1 (configuration not stated)"
  tgt: "MOLT-4"
  qualitative_label: "inactive"
- molecule: "COC1=CC(=O)[C@@]2(C)C(C)[C@H](c3ccccc3)[C@H]2C1=O (some centres not stated)"
  tgt: "MOLT-4"
  qualitative_label: "inactive"

Query string: Test call for this molecule, please: CC(=O)NNc1nc(C)c(C(=O)NNC(=O)C(=O)Nc2ccc(Cl)cc2Cl)s1
Result string: inactive

Query string: Also, CCc1c(C)c(C#N)c(=S)n(C2OC(COC(C)=O)C(OC(C)=O)C(OC(C)=O)C2OC(C)=O)c1C (configuration not stated) please.
Result string: inactive

Query string: Also, CCOC(=O)c1sc2nc(SC)nc(N3CCCCC3)c2c1N please.
Result string: inactive

* * *

System: SNB-75
protocol: NCI tumour cell line growth inhibition, 48 h
Active and inactive are the calls of the source. No stated cut-off is given here; in the data, active = GI50 up to about 1.1 µM and inactive = higher.
recorded_endpoint: GI50

These solved cases illustrate the format of a correct answer.
- compound: "Cc1c(OC(C)C(=O)O)ccc2c(-c3ccccc3)cc(=O)oc12 (centres undefined)"
  recorded_endpoint: "GI50"
  result: "> 100 µM (inactive)"
- compound: "CCOC(=O)C(C)c1nc2c(Cl)c3ncccc3cc2[nH]c1=O (centres undefined)"
  recorded_endpoint: "GI50"
  result: "62.2 µM (inactive)"
- compound: "O=C(Nc1ccccc1)Oc1ccccc1C1CCCCC1"
  recorded_endpoint: "GI50"
  result: "6.38 µM (inactive)"

For the next question, use this compound.
Query string: If you can, please state the reported GI50 value of Cn1c(=O)n(-c2c3ccccc3c(Cl)c3ccccc23)n(C(C)(C)C)c1=O .
Result string: 12.1 µM (inactive)

* * *

System: NCI-H226
protocol: NCI tumour cell line growth inhibition, 48 h
The source made the active and inactive calls. Rule as the data show it: active = GI50 up to about 1.1 µM and inactive = higher.
Outcome field: choose from active, inactive

Would you please look over these solved cases?
- compound: "Nc1nc(O)c2[nH]cnc2[n+]1[O-]"
  qualitative_label: "inactive"
- compound: "CC(C)(Cl)C(Br)CC/C(=C/CCl)CBr.CC(C)(Cl)C(Br)CC/C(=C\\CCl)CBr (stereo not given)"
  qualitative_label: "inactive"
- compound: "NS(=O)(=O)c1ccc(NC2=CC(=O)C(=O)c3ccccc32)cc1"
  qualitative_label: "inactive"
- compound: "Cc1cc2nc(-c3c(F)cccc3F)n(Cc3c(F)cccc3F)c2cc1C"
  qualitative_label: "inactive"
- compound: "Cc1n[nH]c(=O)n1/N=C/c1ccncc1"
  qualitative_label: "inactive"

Please examine the following record next.
Query string: Test call for this compound, please: Clc1cc2nnn(C3CCCCO3)c2cc1Cl (stereo not given)
Result string: inactive
